- target-or-system: mitochondrial complex II (Homo sapiens, UniProt O14521+P21912+Q99643)
- Construct: gene SDHB; native complex in permeabilized H2030BrM3 cells
- Sequence (P21912 29-280): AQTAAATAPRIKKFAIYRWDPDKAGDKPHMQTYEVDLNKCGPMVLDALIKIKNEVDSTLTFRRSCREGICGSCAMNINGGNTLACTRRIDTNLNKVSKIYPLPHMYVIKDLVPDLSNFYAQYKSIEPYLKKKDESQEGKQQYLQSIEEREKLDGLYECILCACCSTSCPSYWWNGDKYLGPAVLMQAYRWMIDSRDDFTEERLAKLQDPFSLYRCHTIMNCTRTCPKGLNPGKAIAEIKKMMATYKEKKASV
- Sequence (Q99643 30-169): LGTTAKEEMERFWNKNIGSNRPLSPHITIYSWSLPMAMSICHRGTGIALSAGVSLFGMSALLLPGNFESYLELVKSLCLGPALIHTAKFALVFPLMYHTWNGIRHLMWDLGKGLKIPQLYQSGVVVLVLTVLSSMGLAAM
- Sequence (O14521 57-159): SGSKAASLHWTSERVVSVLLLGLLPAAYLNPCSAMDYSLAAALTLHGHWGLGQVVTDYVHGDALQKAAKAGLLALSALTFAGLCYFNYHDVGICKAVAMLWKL
- Sequence (P31040 43-664 partner): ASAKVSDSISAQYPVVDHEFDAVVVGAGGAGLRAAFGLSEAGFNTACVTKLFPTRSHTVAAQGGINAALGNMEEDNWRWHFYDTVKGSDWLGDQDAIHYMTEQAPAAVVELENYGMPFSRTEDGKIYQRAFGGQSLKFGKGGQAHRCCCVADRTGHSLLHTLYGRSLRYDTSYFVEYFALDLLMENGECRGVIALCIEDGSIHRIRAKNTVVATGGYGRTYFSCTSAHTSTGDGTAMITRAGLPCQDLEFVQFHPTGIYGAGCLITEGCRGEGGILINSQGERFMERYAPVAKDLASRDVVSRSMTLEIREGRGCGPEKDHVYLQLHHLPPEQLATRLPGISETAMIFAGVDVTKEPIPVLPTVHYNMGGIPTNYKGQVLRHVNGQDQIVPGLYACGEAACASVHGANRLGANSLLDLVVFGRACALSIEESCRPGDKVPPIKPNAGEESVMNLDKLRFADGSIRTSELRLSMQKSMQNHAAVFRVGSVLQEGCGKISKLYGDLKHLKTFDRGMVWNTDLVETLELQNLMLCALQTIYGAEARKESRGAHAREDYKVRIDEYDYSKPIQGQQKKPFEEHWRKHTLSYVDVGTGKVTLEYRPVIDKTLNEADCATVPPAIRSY
- protocol-text: oxygen consumption rate, Seahorse XF96, permeabilized cells
- Format: cell-based
pIC50: −log10 of the molar value.
readout-name: pIC50

{"structure-notation": "O=C(O)c1nn(Cc2ccc(Cl)cc2Cl)c2ccccc12", "recorded-result": 3.41}
{"structure-notation": "O=C(NCCCCCCCCCC[P+](c1ccccc1)(c1ccccc1)c1ccccc1)c1nn(Cc2ccc(Cl)cc2Cl)c2ccccc12", "recorded-result": 5.62}

* * *

Quick reference: pIC50 of the listed items.
- target-or-system: mitochondrial complex I (Homo sapiens, UniProt O75251+O75306+P03886)
- Construct: native complex in permeabilized H2030BrM3 cells
- protocol-text: oxygen consumption rate, Seahorse XF96, permeabilized cells
pIC50: −log10 of the molar value.

{"structure-notation": "O=C(NCCCCCCCCCC[P+](c1ccccc1)(c1ccccc1)c1ccccc1)c1nn(Cc2ccc(Cl)cc2Cl)c2ccccc12", "pIC50": 5.92}
{"structure-notation": "O=C(O)c1nn(Cc2ccc(Cl)cc2Cl)c2ccccc12", "pIC50": 3.35}
